Measured log10(IC50), listed per entry for reference.
TARGET OF ASSAY: wild type LRRK2 overexpressed in recombinant HEK-293T cells (Homo sapiens)
Sequence (Q5S007 whole entry): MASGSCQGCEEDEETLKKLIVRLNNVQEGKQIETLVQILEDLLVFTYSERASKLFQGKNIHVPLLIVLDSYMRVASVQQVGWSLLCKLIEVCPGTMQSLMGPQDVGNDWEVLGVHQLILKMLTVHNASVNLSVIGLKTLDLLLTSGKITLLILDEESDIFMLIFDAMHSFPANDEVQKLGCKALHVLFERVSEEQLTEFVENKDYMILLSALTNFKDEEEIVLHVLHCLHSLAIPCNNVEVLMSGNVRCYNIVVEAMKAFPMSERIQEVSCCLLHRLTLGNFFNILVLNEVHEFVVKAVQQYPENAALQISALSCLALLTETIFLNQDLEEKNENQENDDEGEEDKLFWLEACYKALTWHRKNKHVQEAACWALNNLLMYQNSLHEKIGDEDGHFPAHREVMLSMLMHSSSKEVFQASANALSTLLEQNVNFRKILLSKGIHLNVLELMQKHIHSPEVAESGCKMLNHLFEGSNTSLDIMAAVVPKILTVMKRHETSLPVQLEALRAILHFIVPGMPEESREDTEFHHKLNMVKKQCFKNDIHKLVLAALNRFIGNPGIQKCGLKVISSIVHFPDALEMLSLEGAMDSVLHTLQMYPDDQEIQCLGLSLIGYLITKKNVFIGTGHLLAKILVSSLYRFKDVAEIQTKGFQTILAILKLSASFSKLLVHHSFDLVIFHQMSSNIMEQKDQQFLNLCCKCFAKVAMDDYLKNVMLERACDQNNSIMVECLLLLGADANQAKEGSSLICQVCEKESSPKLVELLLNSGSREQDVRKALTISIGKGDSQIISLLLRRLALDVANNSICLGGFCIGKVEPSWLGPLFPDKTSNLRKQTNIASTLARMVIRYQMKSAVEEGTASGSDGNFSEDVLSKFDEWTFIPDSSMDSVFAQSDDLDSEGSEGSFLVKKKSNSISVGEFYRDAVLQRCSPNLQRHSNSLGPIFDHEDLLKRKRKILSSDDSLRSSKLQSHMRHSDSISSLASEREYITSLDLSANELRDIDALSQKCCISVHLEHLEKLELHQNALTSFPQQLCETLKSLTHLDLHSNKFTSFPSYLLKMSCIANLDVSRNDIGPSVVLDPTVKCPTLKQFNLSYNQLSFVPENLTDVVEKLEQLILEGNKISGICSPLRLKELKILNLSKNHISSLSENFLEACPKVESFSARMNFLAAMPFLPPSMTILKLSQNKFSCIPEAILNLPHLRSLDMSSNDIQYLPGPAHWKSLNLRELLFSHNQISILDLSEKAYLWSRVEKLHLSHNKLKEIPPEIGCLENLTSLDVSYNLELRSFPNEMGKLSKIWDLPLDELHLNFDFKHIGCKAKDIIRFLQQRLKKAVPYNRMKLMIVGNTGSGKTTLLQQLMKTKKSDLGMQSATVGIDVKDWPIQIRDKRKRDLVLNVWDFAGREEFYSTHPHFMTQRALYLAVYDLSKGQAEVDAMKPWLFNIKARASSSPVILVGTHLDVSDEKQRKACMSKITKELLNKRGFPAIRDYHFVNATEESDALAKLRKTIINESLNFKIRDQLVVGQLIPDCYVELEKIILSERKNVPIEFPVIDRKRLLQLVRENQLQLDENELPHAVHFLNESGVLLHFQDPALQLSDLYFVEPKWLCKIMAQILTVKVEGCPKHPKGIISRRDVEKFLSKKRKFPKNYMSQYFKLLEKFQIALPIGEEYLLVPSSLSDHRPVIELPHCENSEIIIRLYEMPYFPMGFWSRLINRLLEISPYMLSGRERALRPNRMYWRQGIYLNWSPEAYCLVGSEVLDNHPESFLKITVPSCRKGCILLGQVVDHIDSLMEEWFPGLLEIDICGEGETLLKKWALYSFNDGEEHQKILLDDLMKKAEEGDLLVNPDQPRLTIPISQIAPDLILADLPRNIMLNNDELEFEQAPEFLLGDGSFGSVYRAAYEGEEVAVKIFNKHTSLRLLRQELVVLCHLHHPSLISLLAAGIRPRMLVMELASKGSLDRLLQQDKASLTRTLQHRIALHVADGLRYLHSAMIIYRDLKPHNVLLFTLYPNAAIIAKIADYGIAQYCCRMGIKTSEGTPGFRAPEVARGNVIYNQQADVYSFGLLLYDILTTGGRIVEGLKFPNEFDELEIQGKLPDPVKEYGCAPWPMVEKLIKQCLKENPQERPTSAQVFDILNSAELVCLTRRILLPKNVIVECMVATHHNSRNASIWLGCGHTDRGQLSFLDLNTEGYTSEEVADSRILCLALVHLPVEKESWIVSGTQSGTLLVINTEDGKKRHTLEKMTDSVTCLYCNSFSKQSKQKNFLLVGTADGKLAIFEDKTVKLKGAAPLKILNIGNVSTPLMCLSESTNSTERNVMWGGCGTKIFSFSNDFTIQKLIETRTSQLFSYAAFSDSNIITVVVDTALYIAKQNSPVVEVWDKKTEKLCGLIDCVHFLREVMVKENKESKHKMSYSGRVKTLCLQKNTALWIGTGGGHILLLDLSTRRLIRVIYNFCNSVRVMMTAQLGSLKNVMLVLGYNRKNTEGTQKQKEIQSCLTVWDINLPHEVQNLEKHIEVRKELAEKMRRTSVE
METHOD DESCRIPTION: pS935 LRRK2 Cell Assay (HTRF, phospho-LRRK2 Ser935)
MEASUREMENT PARAMETERS: LRRK2 Inhibition, Table 8, 2 hours compound incubation
PROPERTY NAME: log10(IC50) (log10 of the value in nM)

[[record]]
smiles_string = "Cc1ccnc(C)c1NC(=O)Cc1nc2cnc3ccc(Cl)cc3c2n1[C@@H]1CCO[C@H](C)C1"
measurement = 0.89

[[record]]
smiles_string = "C[C@@H]1C[C@H](n2c(CC(=O)Nc3cnccn3)nc3cnc4ccc(C#N)cc4c32)CCO1"
measurement = 0.21

[[record]]
smiles_string = "N#Cc1ccc2ncc3nc(CC(=O)NCC4CC4)n(C4CCCC4)c3c2c1"
measurement = 2.24

[[record]]
smiles_string = "CO[C@H]1C[C@@H](NC(=O)Cc2nc3cnc4ccc(C#N)cc4c3n2[C@@H]2CCO[C@H](C)C2)C1"
measurement = 1.62

[[record]]
smiles_string = "C[C@@H]1C[C@H](n2c(CC(=O)Nc3cn(C)c(C(F)(F)F)cc3=O)nc3cnc4ccc(C#N)cc4c32)CCO1"
measurement = 1.57

[[record]]
smiles_string = "C[C@@H]1C[C@H](n2c(CC(=O)NCC(C)(C)C#N)nc3cnc4ccc(C#N)cc4c32)CCO1"
measurement = 2.23

[[record]]
smiles_string = "C[C@@H]1C[C@H](n2c(CC(=O)Nc3cnn(C4CCC4)c3)nc3cnc4ccc(C#N)cc4c32)CCO1"
measurement = 1.09


###

Measured IC50, listed per entry for reference.
TARGET OF ASSAY: wild type LRRK2 overexpressed in recombinant HEK-293T cells (Homo sapiens)
METHOD DESCRIPTION: pS935 LRRK2 Cell Assay (HTRF, phospho-LRRK2 Ser935)
MEASUREMENT PARAMETERS: LRRK2 Inhibition, Table 8, 2 hours compound incubation
PROPERTY NAME: IC50 (nM)

[[record]]
smiles_string = "C[C@@H]1C[C@H](n2c([C@H]3CN(c4cnn(C)c4)C(=O)O3)nc3cnc4ccc(C#N)cc4c32)CCO1"
measurement = 50.9

[[record]]
smiles_string = "COc1cc(C)ncc1NC(=O)Cc1nc2cnc3ccc(C#N)cc3c2n1[C@@H]1CCO[C@H](C)C1"
measurement = 5.44

[[record]]
smiles_string = "C[C@@H]1C[C@H](n2c(CNC(=O)c3ccccn3)nc3cnc4ccc(C#N)cc4c32)CCO1"
measurement = 22.9

[[record]]
smiles_string = "CC(C)n1cc(NC(=O)Cc2nc3cnc4ccc(C#N)cc4c3n2[C@@H]2CCO[C@H](C)C2)cn1"
measurement = 16

[[record]]
smiles_string = "C[C@@H]1C[C@H](n2c(CC(=O)Nc3ccn(C)c(=O)c3)nc3cnc4ccc(Cl)cc4c32)CCO1"
measurement = 11.5

[[record]]
smiles_string = "C[C@@H]1C[C@H](n2c(CC(=O)NC[C@H]3CCCO3)nc3cnc4ccc(C#N)cc4c32)CCO1"
measurement = 21.3

[[record]]
smiles_string = "Cc1oncc1CNC(=O)Cc1nc2cnc3ccc(C#N)cc3c2n1[C@@H]1CCO[C@H](C)C1"
measurement = 17.1


###

Measured IC50, listed per entry for reference.
TARGET OF ASSAY: LRRK2 wild type enzyme (Homo sapiens)
PROPERTY NAME: IC50 (nM)

[[record]]
compound = "Cc1nocc1NC(=O)Cc1nc2cnc3ccc(C#N)cc3c2n1[C@@H]1CCO[C@H](C)C1"
property_name = "IC50"
measurement = 0.415

[[record]]
compound = "C[C@@H]1C[C@H](n2c(CC(=O)Nc3cccnc3)nc3cnc4ccc(Cl)cc4c32)CCO1"
property_name = "IC50"
measurement = 0.44

[[record]]
compound = "C[C@@H]1C[C@H](n2c(CC(=O)NC3CCCCC3)nc3cnc4ccc(C#N)cc4c32)CCO1"
property_name = "IC50"
measurement = 0.635

[[record]]
compound = "C[C@@H]1C[C@H](n2c(CC(=O)Nc3cccnc3F)nc3cnc4ccc(C#N)cc4c32)CCO1"
property_name = "IC50"
measurement = 0.496

[[record]]
compound = "C[C@@H]1C[C@H](n2c(C3CC(=O)N([C@@H]4CCCOC4)C3)nc3cnc4ccc(C#N)cc4c32)CCO1 (stereo partly shown)"
property_name = "IC50"
measurement = 3.03

[[record]]
compound = "Cc1ncc(NC(=O)Cc2nc3cnc4ccc(C#N)cc4c3n2[C@@H]2CCO[C@H](C)C2)c(C)n1"
property_name = "IC50"
measurement = 0.512

[[record]]
compound = "C[C@@H]1C[C@H](n2c(CC(=O)NCc3cccnn3)nc3cnc4ccc(Cl)cc4c32)CCO1"
property_name = "IC50"
measurement = 0.376


###

TARGET OF ASSAY: wild type LRRK2 overexpressed in recombinant HEK-293T cells (Homo sapiens)
METHOD DESCRIPTION: pS935 LRRK2 Cell Assay (HTRF, phospho-LRRK2 Ser935)
MEASUREMENT PARAMETERS: LRRK2 Inhibition, Table 8, 2 hours compound incubation
pIC50: −log10 of the molar value.
PROPERTY NAME: pIC50

[[record]]
molecule = "COc1nnccc1NC(=O)Cc1nc2cnc3ccc(C#N)cc3c2n1[C@@H]1CCO[C@H](C)C1"
target_of_assay = "wild type LRRK2 overexpressed in recombinant HEK-293T cells (Homo sapiens)"
property_name = "pIC50"
measurement = 8.54

[[record]]
molecule = "C[C@@H]1C[C@H](n2c(CC(=O)Nc3cnoc3)nc3cnc4ccc(C#N)cc4c32)CCO1"
target_of_assay = "wild type LRRK2 overexpressed in recombinant HEK-293T cells (Homo sapiens)"
property_name = "pIC50"
measurement = 7.67

[[record]]
molecule = "C[C@@H]1C[C@H](n2c([C@@H]3CC(=O)N(c4cnn(C)c4)C3)nc3cnc4ccc(C#N)cc4c32)CCO1"
target_of_assay = "wild type LRRK2 overexpressed in recombinant HEK-293T cells (Homo sapiens)"
property_name = "pIC50"
measurement = 6.96

[[record]]
molecule = "C[C@@H]1C[C@H](n2c(CN)nc3cnc4ccc(C#N)cc4c32)CCO1"
target_of_assay = "wild type LRRK2 overexpressed in recombinant HEK-293T cells (Homo sapiens)"
property_name = "pIC50"
measurement = 6.37

[[record]]
molecule = "C[C@@H]1C[C@H](n2c(CC(=O)Nc3nccs3)nc3cnc4ccc(C#N)cc4c32)CCO1"
target_of_assay = "wild type LRRK2 overexpressed in recombinant HEK-293T cells (Homo sapiens)"
property_name = "pIC50"
measurement = 8.39

[[record]]
molecule = "CCOc1ccc(NC(=O)Cc2nc3cnc4ccc(C#N)cc4c3n2[C@@H]2CCO[C@H](C)C2)cn1"
target_of_assay = "wild type LRRK2 overexpressed in recombinant HEK-293T cells (Homo sapiens)"
property_name = "pIC50"
measurement = 8.10

[[record]]
molecule = "C[C@@H]1C[C@H](n2c(CC(=O)NCC3CCO3)nc3cnc4ccc(C#N)cc4c32)CCO1 (stereo partly drawn)"
target_of_assay = "wild type LRRK2 overexpressed in recombinant HEK-293T cells (Homo sapiens)"
property_name = "pIC50"
measurement = 7.13

[[record]]
molecule = "C[C@@H]1C[C@H](n2c(CC(=O)NC3CC3)nc3cnc4ccc(Cl)cc4c32)CCO1"
target_of_assay = "wild type LRRK2 overexpressed in recombinant HEK-293T cells (Homo sapiens)"
property_name = "pIC50"
measurement = 7.95

[[record]]
molecule = "Cc1ncc(NC(=O)Cc2nc3cnc4ccc(C#N)cc4c3n2[C@@H]2CCO[C@H](C)C2)c(C)n1"
target_of_assay = "wild type LRRK2 overexpressed in recombinant HEK-293T cells (Homo sapiens)"
property_name = "pIC50"
measurement = 7.98

[[record]]
molecule = "C[C@@H]1C[C@H](n2c(CC(=O)Nc3cn(C)ccc3=O)nc3cnc4ccc(C#N)cc4c32)CCO1"
target_of_assay = "wild type LRRK2 overexpressed in recombinant HEK-293T cells (Homo sapiens)"
property_name = "pIC50"
measurement = 6.39

[[record]]
molecule = "CC1CC(n2c(CC3CNC3)nc3cnc4ccc(C#N)cc4c32)CCO1 (stereo not drawn)"
target_of_assay = "wild type LRRK2 overexpressed in recombinant HEK-293T cells (Homo sapiens)"
property_name = "pIC50"
measurement = 5.43

[[record]]
molecule = "C[C@@H]1C[C@H](n2c(CC(=O)NC[C@@H]3CCOC3)nc3cnc4ccc(C#N)cc4c32)CCO1"
target_of_assay = "wild type LRRK2 overexpressed in recombinant HEK-293T cells (Homo sapiens)"
property_name = "pIC50"
measurement = 7.42

[[record]]
molecule = "C[C@@H]1C[C@H](n2c([C@@H]3CCCN(C(=O)C4CC4)C3)nc3cnc4ccc(C#N)cc4c32)CCO1"
target_of_assay = "wild type LRRK2 overexpressed in recombinant HEK-293T cells (Homo sapiens)"
property_name = "pIC50"
measurement = 6.11

[[record]]
molecule = "C[C@@H]1C[C@H](n2c(C3CC(=O)N(Cc4cnn(C)c4)C3)nc3cnc4ccc(C#N)cc4c32)CCO1 (mixture of isomers)"
target_of_assay = "wild type LRRK2 overexpressed in recombinant HEK-293T cells (Homo sapiens)"
property_name = "pIC50"
measurement = 6.03

[[record]]
molecule = "C[C@@H]1C[C@H](n2c(CC(=O)Nc3cnn(C)c3)nc3cnc4ccc(C#N)cc4c32)CCO1"
target_of_assay = "wild type LRRK2 overexpressed in recombinant HEK-293T cells (Homo sapiens)"
property_name = "pIC50"
measurement = 7.61

